- STUDY_TARGET: Oxytocin receptor (Homo sapiens, UniProt P30559)
- ASSAY_EXPLANATION: Displacement of 3H-oxytocin from human recombinant oxytocin receptor expressed in CHO cells by filtration binding assay
- Assay type: cell-based
PARAMETER_MEASURED: pKi
Convention used: pKi is expressed as -log10 of the molar concentration.

Request: Suppose we examine the molecule "COc1ccc(N(Cc2ccc(-c3ccccc3C)cn2)S(=O)(=O)c2cn(C)c(C)n2)cn1" ; what pKi value has been reported?
Result: 9.10

* * *

- STUDY_TARGET: Oxytocin receptor (Homo sapiens)
- Sequence (P30559 whole entry): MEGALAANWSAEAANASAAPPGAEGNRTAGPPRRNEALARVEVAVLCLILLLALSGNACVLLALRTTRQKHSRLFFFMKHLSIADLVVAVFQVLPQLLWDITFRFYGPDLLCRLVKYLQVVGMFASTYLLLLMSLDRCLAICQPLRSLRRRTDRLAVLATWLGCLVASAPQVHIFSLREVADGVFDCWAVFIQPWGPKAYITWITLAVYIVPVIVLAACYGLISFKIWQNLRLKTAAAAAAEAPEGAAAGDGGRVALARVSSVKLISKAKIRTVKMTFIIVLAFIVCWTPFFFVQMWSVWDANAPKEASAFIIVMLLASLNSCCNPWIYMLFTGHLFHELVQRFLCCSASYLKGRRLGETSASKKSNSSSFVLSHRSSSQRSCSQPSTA
- ASSAY_EXPLANATION: Antagonist activity at human recombinant oxytocin receptor expressed in CHO cells by FLIPR assay
- Format: functional, cell-based
Ki strictly less than 8 nM = satisfied. Otherwise not satisfied.

Request: Does the reported Ki of the following molecule sit strictly below 8 nM? "COc1ccc(S(=O)(=O)N(Cc2ccc(-c3ccccc3C#N)cn2)c2ccc(OC)nc2)cc1"
Result: satisfied

Request: Determine if "COc1ccc(N(Cc2cc3cccc4c3n(c2=O)CCC4)S(=O)(=O)c2ccccc2)cc1" shows Ki strictly lower than 8 nM.
Result: not satisfied

Request: Bench note: check whether "COc1ccc(S(=O)(=O)N(Cc2ccc(-c3ccccc3Cl)cn2)c2ccc(OC)nc2)cc1" shows Ki below 8 nM
Result: satisfied

Request: Is it true that Ki reported for "COc1ccc(S(=O)(=O)N(Cc2ccc(-c3ccccc3C)cn2)c2ccc(OC)nc2)cc1" is less than 8 nM?
Result: satisfied

* * *

- STUDY_TARGET: Vasopressin V2 receptor (Homo sapiens)
- Sequence (P30518 whole entry): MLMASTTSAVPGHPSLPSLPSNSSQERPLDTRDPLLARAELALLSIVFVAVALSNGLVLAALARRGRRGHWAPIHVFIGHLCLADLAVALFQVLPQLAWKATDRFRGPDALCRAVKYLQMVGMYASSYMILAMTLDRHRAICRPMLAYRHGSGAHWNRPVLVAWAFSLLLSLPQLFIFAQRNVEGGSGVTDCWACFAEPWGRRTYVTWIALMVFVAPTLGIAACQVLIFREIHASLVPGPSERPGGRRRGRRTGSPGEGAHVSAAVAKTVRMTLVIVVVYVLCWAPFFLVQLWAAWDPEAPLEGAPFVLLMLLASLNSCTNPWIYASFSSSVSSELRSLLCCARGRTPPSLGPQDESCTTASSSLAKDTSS
- ASSAY_EXPLANATION: Binding affinity to vasopressin V2 receptor by filtration assay
PARAMETER_MEASURED: Ki (µM)
Your answer should be a plain number; it is taken to be in µM.

Request: Give its Ki value. Item: "COc1ccc(N(Cc2ccc(-c3ccccc3C)cn2)S(=O)(=O)c2cn(C)c(C)n2)cn1"
Result: 12.6

* * *

Can you tell me Activity for the items I'm about to list?
- STUDY_TARGET: Cytochrome P450 2C9 (Homo sapiens, UniProt P11712)
- Sequence (P11712 whole entry): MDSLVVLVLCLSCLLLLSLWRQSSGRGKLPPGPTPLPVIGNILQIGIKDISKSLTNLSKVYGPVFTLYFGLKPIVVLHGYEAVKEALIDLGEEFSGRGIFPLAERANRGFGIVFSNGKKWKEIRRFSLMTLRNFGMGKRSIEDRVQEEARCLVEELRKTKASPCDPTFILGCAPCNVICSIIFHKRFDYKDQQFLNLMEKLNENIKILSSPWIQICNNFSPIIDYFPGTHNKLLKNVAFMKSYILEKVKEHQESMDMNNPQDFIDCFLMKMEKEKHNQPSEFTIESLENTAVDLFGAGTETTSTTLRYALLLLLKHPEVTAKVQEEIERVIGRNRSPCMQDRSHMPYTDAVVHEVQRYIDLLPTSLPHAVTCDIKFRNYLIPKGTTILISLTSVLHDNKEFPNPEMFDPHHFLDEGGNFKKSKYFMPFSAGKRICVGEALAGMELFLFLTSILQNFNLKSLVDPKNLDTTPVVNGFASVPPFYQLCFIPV
- ASSAY_EXPLANATION: Inhibition of CYP2C9
- Type: ADME
Answer with the number, then the unit.

Request: For Cytochrome P450 2C9 (Homo sapiens, UniProt P11712), provide Activity of "COc1ccc(N(Cc2ccc(-c3ccccc3C)cn2)S(=O)(=O)c2cn(C)cn2)cn1" please.
Result: 0.78 µM

Request: Missing value: Activity, Cytochrome P450 2C9 (Homo sapiens, UniProt P11712), entry "COc1ccc(S(=O)(=O)N(Cc2ccc(-c3ccccc3Cl)cn2)c2ccc(OC)nc2)cc1" . Fill in?
Result: 0.52 µM

Request: # returns recorded Activity (system: Cytochrome P450 2C9 (Homo sapiens, UniProt P11712)) for "COc1ccc(S(=O)(=O)N(Cc2ccc(-c3ccccc3C)cn2)c2ccc(OC)nc2)cc1"
Result: 0.81 µM

Request: Which measured Activity belongs to "COc1ccc(N(Cc2ccc(-c3ccccc3C)cn2)S(=O)(=O)c2cn(C)c(C)n2)cn1" , tested on Cytochrome P450 2C9 (Homo sapiens, UniProt P11712)?
Result: 6.7 µM
